Measured target: T1, HLA-DR DRB1*0802 (human)
T1 chain 1: not shown
T1 chain 2: not shown
Assay remarks: radioligand competition, purified HLA-DR
Particulars: remark: other sources report otherwise
Measured metric: pIC50
Scale: pIC50 equals -log10([C]), with [C] in mol/L.

In plain terms, PPSMVAAGSVVAAVQ [Cyclin D1.199 (peptide 9019.0170)] has a documented pIC50 of 5.85
